Provide the reported EC50 of each item.
Test system: R2 reporter
Assay: R2 luciferase reporter (BIRC3/BIRC2 locus) stably transfected in A549 cells
Assay type: cell-based, human
Conditions: Homo sapiens, A549, 6 h, R2 reporter; glucocorticoid, naïve; 6 h
Value expressed in nM; do not type the unit.

Give the value of EC50 reported for the following: CCCC1O[C@@H]2C[C@H]3[C@@H]4CCC5=CC(=O)C=C[C@]5(C)[C@H]4[C@@H](O)C[C@]3(C)[C@]2(C(=O)CO)O1 (some centres unmarked) [Budesonide, budesonide]
3.47

Input C[C@@H]1C[C@H]2[C@@H]3CCC4=CC(=O)C=C[C@]4(C)[C@@]3(F)[C@@H](O)C[C@]2(C)[C@@]1(O)C(=O)CO [Dexamethasone, dexamethasone] , output reported EC50.
8.51
